# Assay Target: Polyunsaturated fatty acid 5-lipoxygenase (Rattus norvegicus)
# Sequence (P12527 whole entry): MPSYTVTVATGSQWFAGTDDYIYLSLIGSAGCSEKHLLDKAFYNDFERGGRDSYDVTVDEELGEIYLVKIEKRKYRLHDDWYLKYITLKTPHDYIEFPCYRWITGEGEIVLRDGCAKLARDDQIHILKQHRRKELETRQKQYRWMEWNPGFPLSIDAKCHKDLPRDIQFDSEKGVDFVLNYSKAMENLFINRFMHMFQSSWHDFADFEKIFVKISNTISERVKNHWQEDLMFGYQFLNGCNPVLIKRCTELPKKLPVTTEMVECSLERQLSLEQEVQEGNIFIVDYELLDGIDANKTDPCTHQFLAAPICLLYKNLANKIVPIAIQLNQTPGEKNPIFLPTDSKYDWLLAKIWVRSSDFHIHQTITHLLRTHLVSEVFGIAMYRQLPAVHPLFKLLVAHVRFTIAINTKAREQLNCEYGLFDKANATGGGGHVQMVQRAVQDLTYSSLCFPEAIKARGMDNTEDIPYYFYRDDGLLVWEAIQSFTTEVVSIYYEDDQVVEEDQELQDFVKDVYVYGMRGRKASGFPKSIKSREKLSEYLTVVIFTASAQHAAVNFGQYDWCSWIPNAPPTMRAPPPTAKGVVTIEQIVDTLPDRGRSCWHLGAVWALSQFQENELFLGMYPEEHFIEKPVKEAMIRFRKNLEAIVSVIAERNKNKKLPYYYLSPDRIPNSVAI
# Assay Name: In vitro inhibition of RBL-1 5-lipoxygenase; Value ranges from 1.9-2.4
# Type: cell-based
Result Type: IC50 (µM)
# unit: µM | format: bare number

Request: Assign IC50 to the following record: `Cc1ccc(O)c2[nH]c(Cc3cccs3)nc12`
Result: 2.1

###

# Assay Target: UniProtKB P12527
# Assay Name: In vitro inhibition of RBL-1 5-lipoxygenase; Value ranges from 0.9-4.0
# Format: cell-based
Result Type: pIC50
Keep it numeric: pIC50 is minus log10 of the concentration in mol/L.

Request: Assign pIC50 to the following record: `COc1ccc(Cc2nc3c(C)cc(C(C)(C)C)c(O)c3[nH]2)cc1`
Result: 5.66
